// provenance: patent US20160083466A1

Target: T1, monkey IL-25 expressed with a C-terminal myc-myc-hexahistidine tag (M. fascicularis (cynomolgus monkey))
T1 construct: also called Monkey IL-25-MMH; MfIL-25-MMH
T1 chain: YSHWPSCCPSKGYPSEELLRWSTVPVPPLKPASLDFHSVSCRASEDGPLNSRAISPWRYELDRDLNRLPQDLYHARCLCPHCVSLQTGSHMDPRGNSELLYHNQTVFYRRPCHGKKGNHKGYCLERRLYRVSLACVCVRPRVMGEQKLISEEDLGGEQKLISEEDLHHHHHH
Test: SPR Biacore, antibody captured, 37C;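 further: biacore 4000 surface plasmon resonance biosensor measuring binding of IL-25-MMH to purified anti-IL-25 antibodies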
Recorded measurements of kon, one per entry
measurement-name: kon

binder	measurement-name	reported
H4H10863P (antibody, human IgG4, V domains shown, H4H prefix = human IgG4 Fc) VH: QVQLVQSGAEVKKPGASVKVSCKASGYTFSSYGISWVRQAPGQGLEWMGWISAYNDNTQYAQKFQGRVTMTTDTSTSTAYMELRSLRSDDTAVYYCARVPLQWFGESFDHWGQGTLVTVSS VL: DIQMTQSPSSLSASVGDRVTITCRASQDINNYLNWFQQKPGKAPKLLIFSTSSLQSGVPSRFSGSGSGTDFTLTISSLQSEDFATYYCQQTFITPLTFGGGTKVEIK	kon	1.18e+06 M⁻¹ s⁻¹
H4H10905P (antibody, human IgG4, V domains shown, H4H prefix = human IgG4 Fc) VH: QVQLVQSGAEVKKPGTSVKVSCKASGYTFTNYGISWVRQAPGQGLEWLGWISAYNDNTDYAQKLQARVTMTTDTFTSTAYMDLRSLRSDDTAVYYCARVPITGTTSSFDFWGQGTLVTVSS VL: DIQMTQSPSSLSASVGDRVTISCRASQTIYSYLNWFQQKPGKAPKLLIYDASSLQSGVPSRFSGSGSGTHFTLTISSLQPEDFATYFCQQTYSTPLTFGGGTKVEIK	kon	668000 M⁻¹ s⁻¹
